Target: Fe(3+)-Zn(2+) purple acid phosphatase (Phaseolus vulgaris, UniProt P80366)
Sequence (P80366 whole entry): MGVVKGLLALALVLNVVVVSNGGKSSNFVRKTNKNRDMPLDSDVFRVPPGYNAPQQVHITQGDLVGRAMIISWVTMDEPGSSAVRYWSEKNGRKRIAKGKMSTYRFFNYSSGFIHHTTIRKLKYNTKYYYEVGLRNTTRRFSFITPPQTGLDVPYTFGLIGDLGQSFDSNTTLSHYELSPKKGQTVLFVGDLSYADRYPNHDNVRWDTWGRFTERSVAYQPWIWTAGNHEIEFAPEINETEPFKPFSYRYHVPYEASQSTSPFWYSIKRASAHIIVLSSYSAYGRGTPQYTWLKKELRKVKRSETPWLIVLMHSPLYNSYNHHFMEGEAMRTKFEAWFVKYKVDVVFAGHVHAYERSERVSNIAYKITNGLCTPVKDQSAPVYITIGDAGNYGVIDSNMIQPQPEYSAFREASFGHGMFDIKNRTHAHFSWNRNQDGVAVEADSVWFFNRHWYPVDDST
assay-endpoint: pKi
In textbook form, pKi equals minus log to base ten of the concentration in mol/L.

In the examples that follow, each entry is paired with its recorded pKi.
>>> reading("CCCCCCCCCCCCCCCCCCOC(c1cccc2ccccc12)P(=O)(O)O (centres undefined)")
6.30
>>> reading("CCCCCCCCCCCCCCCCCCCCOC(c1cccc2ccccc12)P(=O)(O)O (centres undefined)")
6.10
>>> reading("CCCCCCCCCCCCCCCCCCCCCCOC(c1cccc2ccccc12)P(=O)(O)O (centres undefined)")
4.85

Now for another entry.
Record CCCCCCCCCCCCOC(c1cccc2ccccc12)P(=O)(O)O (centres undefined) ; system Fe(3+)-Zn(2+) purple acid phosphatase (Phaseolus vulgaris, UniProt P80366); pKi = 5.35
